Tested on: male mice
Test details: extension of sleeping time of depressant drugs by synergists
Assay type: in vivo, male mice (Swiss albino white)
Test context: Noludar 110 mg/kg; synergist 110 mg/kg one hour prior
Readout type: Mean Sleeping Time, Noludar

> print(dat)
                                   compound  system.tested  result
1   C#CCOCc1ccc(Cl)c([N+](=O)[O-])c1 [II-M]      male mice  47 min
2  C#CCOC(c1ccc(Cl)cc1)C(C)[N+](=O)[O-] (stereo not shown) [IV-C]      male mice  74 min
3           C#CCOCc1cc(Cl)c(Cl)cc1Cl [II-F]      male mice  38 min
4  C#CCOCc1cccc2ccccc12 [II-R, α-napthylmethyl 2-propynyl ether]      male mice  49 min

* * *

Test system: Wilson strain house flies
Assay type: in vivo, Wilson strain (susceptible)
Test context: in vivo
Readout type: Contact Synergistic Ratio, Carbaryl

> print(dat)
                                   compound  result
1                  C#CCON=Cc1ccc(OC)c(OC)c1     200
2                   C#CCON=C(C)c1ccc(Cl)cc1     177
3  C#CCOC(c1cccc2ccccc12)C(C)[N+](=O)[O-] (centres unmarked)      50
4                     C#CCn1ncc2ccc(Cl)cc21     250
5                        C#CCOCc1ccc(Cl)cc1      50

* * *

Recorded Relative Sleeping Time, Secobarbital values for a group of compounds are listed next.
Test system: male mice
Test details: extension of sleeping time of depressant drugs by synergists
Assay type: in vivo, male mice (Swiss albino white)
Test context: Secobarbital 37 mg/kg; synergist 110 mg/kg; treated/control
Readout type: Relative Sleeping Time, Secobarbital

> print(dat)
                    chemical.string  number
1           C#CCON=Cc1ccc(N(C)C)cc1     1.8
2            C#CCOCc1ccc(Cl)c(Cl)c1     1.0
3    C#CCOCc1cccc([N+](=O)[O-])c1Cl     1.8
4  C#CCOCc1ccc(Cl)c([N+](=O)[O-])c1       2

* * *

Tested on: male mice
Test details: extension of sleeping time of depressant drugs by synergists
Format: in vivo, male mice (Swiss albino white)
Test context: Secobarbital 37 mg/kg; synergist 74 mg/kg one hour prior
Property: Mean Sleeping Time, Secobarbital; scope: individual compounds
Readout type: Mean Sleeping Time, Secobarbital (min)

> print(dat)
                                compound  system.tested                      readout.type  number
1  C#CCOCc1ccc(Cl)cc1[N+](=O)[O-] [II-J]      male mice  Mean Sleeping Time, Secobarbital      27
2  C#CCOCc1cccc(Cl)c1[N+](=O)[O-] [II-I]      male mice  Mean Sleeping Time, Secobarbital      31
3  C#CCOCc1ccc([N+](=O)[O-])cc1Cl [II-N]      male mice  Mean Sleeping Time, Secobarbital      20
4           C#CCON=Cc1cccc2ccccc12 [I-I]      male mice  Mean Sleeping Time, Secobarbital      31
5   C#CCON=Cc1cccc([N+](=O)[O-])c1 [I-B]      male mice  Mean Sleeping Time, Secobarbital      54
